- protocol: Water solubility of compound at pH 2
- Format: physicochemical

molecule	solubility
Cc1cc(C#N)cc(C)c1Oc1nc(Nc2ccc(C#N)cc2)nc(N)c1Br [ETRAVIRINE]	< 1 µg/mL
Cc1cc(C#CC=C2CCN(S(C)(=O)=O)CC2)cc(C)c1Oc1ccnc(Nc2ccc(C#N)cc2)n1	20.4 µg/mL
Cc1cc(C#CC=C2CCNCC2)cc(C)c1Oc1ccnc(Nc2ccc(C#N)cc2)n1	47.3 µg/mL
CCC(=O)N1CCC(=CC#Cc2cc(C)c(Oc3ccnc(Nc4ccc(C#N)cc4)n3)c(C)c2)CC1	64.7 µg/mL

====

- protocol: Water solubility of compound at pH 7.4
- Format: physicochemical

input.smiles	solubility [µg/mL]
Cc1cc(C#CC=C2CCNCC2)cc(C)c1Oc1ccnc(Nc2ccc(C#N)cc2)n1	67
CCC(=O)N1CCC(=CC#Cc2cc(C)c(Oc3ccnc(Nc4ccc(C#N)cc4)n3)c(C)c2)CC1	66.5
Cc1cc(C#CC=C2CCN(S(C)(=O)=O)CC2)cc(C)c1Oc1ccnc(Nc2ccc(C#N)cc2)n1	26.6
